- experimentalTarget: GlcNAc(b1-2)[GlcNAc(b1-4)]Man(a1-3)[GlcNAc(b1-2)Man(a1-6)]Man(b1-4)GlcNAc(b1-4)GlcNAc
- testDetails: glycan array binding signal (z-score within array); higher = stronger binding
- measurementParameters: glycan notation: IUPAC condensed, linker removed
This is one part of a sample in which the strongest signals are shown more often than they occur.
reportedEndpoint: glycan array binding signal (z-score)
I only need the number, thanks.

// query glycan array binding signal (z-score) value for entry cupB6 (Pseudomonas aeruginosa), Q02SP7 (protein) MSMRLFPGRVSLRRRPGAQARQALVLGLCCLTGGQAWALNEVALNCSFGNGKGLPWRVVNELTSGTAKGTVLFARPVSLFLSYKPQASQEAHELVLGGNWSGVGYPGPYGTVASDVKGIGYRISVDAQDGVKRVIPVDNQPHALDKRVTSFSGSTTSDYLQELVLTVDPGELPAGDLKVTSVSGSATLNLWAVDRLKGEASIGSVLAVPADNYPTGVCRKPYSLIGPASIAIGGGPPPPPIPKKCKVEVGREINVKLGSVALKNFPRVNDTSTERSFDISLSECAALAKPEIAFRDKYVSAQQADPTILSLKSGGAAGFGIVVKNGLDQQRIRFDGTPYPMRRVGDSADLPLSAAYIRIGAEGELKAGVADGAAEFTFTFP -0.121

// lookup glycan array binding signal (z-score) for Epa1to9 (Candida glabrata) (protein) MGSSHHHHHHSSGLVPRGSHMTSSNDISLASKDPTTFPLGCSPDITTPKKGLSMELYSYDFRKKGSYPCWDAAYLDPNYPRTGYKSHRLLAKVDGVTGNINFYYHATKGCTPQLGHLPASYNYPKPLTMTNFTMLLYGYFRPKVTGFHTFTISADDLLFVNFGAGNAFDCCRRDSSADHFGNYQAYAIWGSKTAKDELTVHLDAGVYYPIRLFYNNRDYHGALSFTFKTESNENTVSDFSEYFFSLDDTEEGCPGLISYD -0.295

Give the measured glycan array binding signal (z-score) of PfulAvr4 (Pseudocercospora fuligena) (protein) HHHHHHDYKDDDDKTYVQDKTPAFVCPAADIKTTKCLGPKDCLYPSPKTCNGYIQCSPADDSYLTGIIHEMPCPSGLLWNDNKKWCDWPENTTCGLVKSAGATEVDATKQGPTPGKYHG . -0.053

Quick check: glycan array binding signal (z-score) of Epa20 (Candida glabrata) (protein) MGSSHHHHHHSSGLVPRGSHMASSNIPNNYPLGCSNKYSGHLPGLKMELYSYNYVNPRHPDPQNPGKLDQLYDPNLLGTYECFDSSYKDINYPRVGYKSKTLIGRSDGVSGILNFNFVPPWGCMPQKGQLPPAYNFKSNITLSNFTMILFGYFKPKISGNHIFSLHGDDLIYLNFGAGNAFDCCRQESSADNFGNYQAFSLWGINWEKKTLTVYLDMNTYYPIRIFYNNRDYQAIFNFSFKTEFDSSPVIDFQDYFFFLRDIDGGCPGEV ? -0.31

// query glycan array binding signal (z-score) value for entry SAOUHSC 02783 (Staphylococcus aureus), Q5HD69 (protein) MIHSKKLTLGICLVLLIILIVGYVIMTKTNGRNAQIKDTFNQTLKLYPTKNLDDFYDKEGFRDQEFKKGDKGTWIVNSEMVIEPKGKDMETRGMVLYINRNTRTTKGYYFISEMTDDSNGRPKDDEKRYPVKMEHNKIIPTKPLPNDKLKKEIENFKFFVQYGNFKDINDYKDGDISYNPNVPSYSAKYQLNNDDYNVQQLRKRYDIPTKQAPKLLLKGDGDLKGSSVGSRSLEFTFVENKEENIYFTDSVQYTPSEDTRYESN 1.11

Sample Epa13 (Candida glabrata) (protein) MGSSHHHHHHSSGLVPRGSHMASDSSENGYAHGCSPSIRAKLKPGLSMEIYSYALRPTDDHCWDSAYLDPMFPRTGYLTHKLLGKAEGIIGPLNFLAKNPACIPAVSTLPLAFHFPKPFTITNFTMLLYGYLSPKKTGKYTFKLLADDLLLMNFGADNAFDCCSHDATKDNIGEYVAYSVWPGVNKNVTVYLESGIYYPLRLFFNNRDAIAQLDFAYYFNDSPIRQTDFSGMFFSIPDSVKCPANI — what was its glycan array binding signal (z-score)? -0.393
